Below, each of the compounds is paired with its reported IC50 value.
Tested on: SREBP-2 transcriptional activity (SREBP2 cleavage) in HepG2_LSSprom cells
PROTOCOL: Luciferase reporter driven by a SREBP-2 specific promoter in HepG2_LSSprom cells
Format: cell-based
RECORDED_CONDITIONS: 24 h, 24 h treatment, HepG2_LSSprom cells; read-out: SREBP2 Cleavage (IC50 μM) 24 h

// map CC(C)(C)c1cc(-c2cc(-c3ccc(C(=O)N4CCCC(N)C4)cc3Cl)cs2)ccn1 (racemic) to recorded IC50 (system: SREBP-2 transcriptional activity (SREBP2 cleavage) in HepG2_LSSprom cells)
> 1 µM

Okay, and CC(C)(C)c1cc(-c2cc(-c3ccc(C(=O)N4CCNCC4)cc3Cl)cs2)ccn1 ?
> 3 µM

Now the compound O=C(c1ccc(-c2csc(-c3ccnc(N4CCCCC4)c3)n2)c(Cl)c1)N1CCOCC1
> 3 µM

* * *

Tested on: SREBP-2 transcriptional activity (SREBP2 cleavage) in HepG2_LSSprom cells
PROTOCOL: Luciferase reporter driven by a SREBP-2 specific promoter in HepG2_LSSprom cells
Assay type: cell-based
RECORDED_CONDITIONS: 24 h, 24 h treatment, HepG2_LSSprom cells; read-out: SREBP2 Cleavage (IC50 μM) 24 h
Item-by-item account of IC50

Known results for compounds:
# COMPOUND, IC50
data = [
    ("CN1CCN(C(=O)c2ccc(-c3csc(-c4ccnc(C(C)(C)C)c4)c3)c(Cl)c2)CC1", "> 3 µM"),
    ("CC(C)(C)c1cc(-c2cc(-c3ccc(C(=O)N4CCS(=O)(=O)CC4)cc3Cl)cs2)ccn1", "> 3 µM"),
    ("CC(C)(C)c1cc(-c2cc(-c3ccc(C(=O)Nc4cccc(O)c4)cc3Cl)cs2)ccn1", "> 1 µM"),
]

Continue with the next compound.
Would you mind telling me what IC50 value was observed for Cc1sc(-c2ccnc(C(C)(C)C)c2)cc1-c1ccc(C(=O)N2CCCC(N)C2)cc1Cl (stereo not shown) ?
> 10 µM

* * *

Tested on: SREBP-2 transcriptional activity (SREBP2 cleavage) in HepG2_LSSprom cells
PROTOCOL: Luciferase reporter driven by a SREBP-2 specific promoter in HepG2_LSSprom cells
Format: cell-based
RECORDED_CONDITIONS: 24 h, 24 h treatment, HepG2_LSSprom cells; read-out: SREBP2 Cleavage (IC50 μM) 24 h
Reported IC50 by item:

Reference set, count: 2
# MOLECULE, ASSAY_TARGET, IC50
data = [
    ("Cc1sc(-c2ccc(C(=O)N3CCC[C@H](N)C3)cc2Cl)cc1-c1ccnc(C(C)(C)C)c1 [Compound 87a]", "SREBP-2 transcriptional activity (SREBP2 cleavage) in HepG2_LSSprom cells", "> 10 µM"),
    ("Cc1sc(-c2ccc(C(=O)N3CCC[C@@H](N)C3)cc2Cl)cc1-c1ccnc(C(C)(C)C)c1 [Compound 87b]", "SREBP-2 transcriptional activity (SREBP2 cleavage) in HepG2_LSSprom cells", "> 10 µM"),
]

Read the next record carefully.
# query: IC50 of entry CC(O)CNC(=O)c1ccc(-c2csc(-c3ccnc(N4CCCCC4)c3)n2)c(Cl)c1 (stereo not drawn)
> 3 µM
